procedure text: Cytotoxicity, HepG2 cells, Resazurin assay
Type: cell-based
measurement conditions: human

{"smiles code": "C[C@@H](NS(=O)(=O)c1cn(C)c(C(=O)Nc2ccnc(F)c2F)c1Cl)C(F)(F)F", "CC50 at 4 days": "> 25 µM"}
{"smiles code": "Cc1cc(NC(=O)c2c(F)c(S(=O)(=O)N[C@H](C)C(F)(F)F)cn2C)cc(F)n1", "CC50 at 4 days": "> 25 µM"}
{"smiles code": "Cn1cc(S(=O)(=O)N[C@H]2CCOC2)c(Cl)c1C(=O)Nc1ccnc(Cl)c1", "CC50 at 4 days": "> 25 µM"}
{"smiles code": "CC[C@@H](NS(=O)(=O)c1cn(C)c(C(=O)Nc2ccnc(C(F)F)c2)c1Cl)C(F)(F)F", "CC50 at 4 days": "24 µM"}

----------
procedure text: Cytotoxicity, HepG2 cells, Resazurin assay
Format: cell-based
measurement conditions: human

{"smiles code": "Cc1cc(NC(=O)c2c(F)c(S(=O)(=O)N[C@H](C)C(F)(F)F)cn2C)cc(Br)n1", "CC50 at 4 days": "> 25 µM"}
{"smiles code": "Cn1cc(S(=O)(=O)NC2(C)CC(F)(F)C2)c(Cl)c1C(=O)Nc1ccnc(Cl)c1", "CC50 at 4 days": "> 25 µM"}
{"smiles code": "CC[C@@H](C)NS(=O)(=O)c1cn(C)c(C(=O)Nc2ccnc(Cl)c2)c1Cl", "CC50 at 4 days": "21.6 µM"}
{"smiles code": "C[C@H](NS(=O)(=O)c1cn(C)c(C(=O)Nc2ccnc(Cl)c2)c1F)C(C)(F)F", "CC50 at 4 days": "> 25 µM"}

----------
Listed here are compounds together with their documented melting point.

{"smiles code": "C[C@@H](NS(=O)(=O)c1cn(C)c(C(=O)Nc2ccnc(C#N)c2)c1Cl)C(F)(F)F", "melting point [°C]": 190.8}
{"smiles code": "Cc1cc(NC(=O)c2c(Cl)c(S(=O)(=O)N[C@H](C)C(F)(F)F)cn2C)ccn1", "melting point [°C]": 203.5}
{"smiles code": "C[C@@H](NS(=O)(=O)c1cn(C)c(C(=O)Nc2ccnc(Cl)c2)c1Cl)C(F)(F)F", "melting point [°C]": 214.8}
{"smiles code": "Cc1nccc(NC(=O)c2c(Cl)c(S(=O)(=O)N[C@H](C)C(F)(F)F)cn2C)c1F", "melting point [°C]": 197.8}
{"smiles code": "C[C@@H](NS(=O)(=O)c1cn(C)c(C(=O)Nc2ccncc2)c1Cl)C(F)(F)F", "melting point [°C]": 259.3}
{"smiles code": "C[C@@H](NS(=O)(=O)c1cn(C)c(C(=O)Nc2ccccn2)c1Cl)C(F)(F)F", "melting point [°C]": 195.2}
{"smiles code": "C[C@@H](NS(=O)(=O)c1cn(C)c(C(=O)Nc2cccnc2)c1Cl)C(F)(F)F", "melting point [°C]": 196.6}
{"smiles code": "C[C@@H](NS(=O)(=O)c1cn(C)c(C(=O)Nc2ccnc(F)c2)c1Cl)C(F)(F)F", "melting point [°C]": 218.1}
{"smiles code": "Cc1nc(NC(=O)c2c(Cl)c(S(=O)(=O)N[C@H](C)C(F)(F)F)cn2C)ccc1F", "melting point [°C]": 173.1}

----------
Test system: HBV
procedure text: anti-HBV activity, HepG2.2.15 stable transfected cell line, HBV DNA from secreted virions by realtime PCR
Assay type: cell-based
measurement conditions: Hepatitis B virus, 144 h, HepG2.2.15 cells, 6 days of treatment
Cut-off 90 nM on EC50: below means Yes, at or above means No.

{"smiles code": "C[C@@H](NS(=O)(=O)c1cn(C)c(C(=O)Nc2cnc(F)c(Br)c2)c1F)C(F)(F)F", "class name": "Yes"}
{"smiles code": "C[C@@H](NS(=O)(=O)c1cn(C)c(C(=O)Nc2cccnc2)c1Cl)C(F)(F)F", "class name": "No"}
{"smiles code": "Cn1cc(S(=O)(=O)NC2(C(F)(F)F)CC2)c(F)c1C(=O)Nc1ccnc(Cl)c1", "class name": "No"}
{"smiles code": "Cn1cc(S(=O)(=O)NC2(C)COC2)cc1C(=O)Nc1ccnc(C#N)c1", "class name": "No"}
{"smiles code": "Cc1nccc(NC(=O)c2c(Cl)c(S(=O)(=O)N[C@H](C)C(F)(F)F)cn2C)c1F", "class name": "Yes"}
{"smiles code": "Cc1cc(NC(=O)c2c(Cl)c(S(=O)(=O)N[C@H](C)C(F)(F)F)cn2C)cnc1F", "class name": "No"}
{"smiles code": "C[C@@H](NS(=O)(=O)c1cn(C)c(C(=O)Nc2ccnc(C(F)F)c2)c1F)C(F)(F)F", "class name": "Yes"}
{"smiles code": "C[C@@H](NS(=O)(=O)c1cn(C)c(C(=O)Nc2ccccn2)c1Cl)C(F)(F)F", "class name": "No"}
{"smiles code": "C[C@@H](NS(=O)(=O)c1cn(C)c(C(=O)Nc2ccnc(C(F)(F)F)c2)c1F)C(C)(F)F", "class name": "No"}
{"smiles code": "C[C@@H](NS(=O)(=O)c1cn(C)c(C(=O)Nc2ccnc(Cl)c2F)c1F)C(F)(F)F", "class name": "No"}
{"smiles code": "C[C@@H](NS(=O)(=O)c1cn(C)c(C(=O)Nc2ccnc(C(F)F)c2)c1F)C(C)(F)F", "class name": "Yes"}
{"smiles code": "CC[C@@H](NS(=O)(=O)c1cn(C)c(C(=O)Nc2ccnc(C(F)F)c2)c1F)C(F)(F)F", "class name": "Yes"}
{"smiles code": "C[C@@H](NS(=O)(=O)c1cn(C)c(C(=O)Nc2ccnc(F)c2)c1Cl)C(F)(F)F", "class name": "Yes"}
{"smiles code": "CC[C@H](NS(=O)(=O)c1cc(C(=O)Nc2ccnc(C#N)c2)n(C)c1)C(F)(F)F", "class name": "Yes"}
{"smiles code": "C[C@@H](NS(=O)(=O)c1cn(C)c(C(=O)Nc2cc(F)nc(F)c2)c1Cl)C(F)(F)F", "class name": "Yes"}
{"smiles code": "Cn1cc(S(=O)(=O)NC2(C)CC(F)(F)C2)c(Cl)c1C(=O)Nc1ccnc(Cl)c1", "class name": "Yes"}
{"smiles code": "Cn1cc(S(=O)(=O)NC2(C(F)(F)F)CCC2)cc1C(=O)Nc1ccnc(C#N)c1", "class name": "Yes"}
{"smiles code": "Cn1cc(S(=O)(=O)NC(C)(C)C)c(Cl)c1C(=O)Nc1ccnc(C#N)c1", "class name": "No"}
{"smiles code": "Cc1cc(NC(=O)c2c(F)c(S(=O)(=O)N[C@H](C)C(F)(F)F)cn2C)cc(C(F)F)n1", "class name": "No"}
{"smiles code": "Cc1cc(NC(=O)c2cc(S(=O)(=O)NC3(C)COC3)cn2C)cnc1F", "class name": "No"}
{"smiles code": "Cn1cc(S(=O)(=O)NC2(C(F)(F)F)CCC2)c(Cl)c1C(=O)Nc1ccnc(C#N)c1", "class name": "Yes"}
{"smiles code": "C[C@@H](NS(=O)(=O)c1cn(C)c(C(=O)Nc2ccnc(C#N)c2F)c1Cl)C(F)(F)F", "class name": "No"}
{"smiles code": "Cn1cc(S(=O)(=O)NC2(C(F)(F)F)CCC2)cc1C(=O)Nc1ccnc(Cl)c1", "class name": "Yes"}
{"smiles code": "CC[C@@H](NS(=O)(=O)c1cn(C)c(C(=O)Nc2ccnc(C(F)F)c2)c1Cl)C(F)(F)F", "class name": "Yes"}
{"smiles code": "CC[C@@H](NS(=O)(=O)c1cn(C)c(C(=O)Nc2ccnc(C#N)c2)c1F)C(F)(F)F", "class name": "Yes"}
